Origin of the recorded values: patent EP4740967A1

Consider the following binders and their measured IC50 of in vitro cell killing on NUGC4-hClaudin18.2 cells (CCK-8 cell viability, 120 h) readings.
Target: T1, human Claudin18.2 (human, UniProt P56856 1-261)
T1 sequence (looked up): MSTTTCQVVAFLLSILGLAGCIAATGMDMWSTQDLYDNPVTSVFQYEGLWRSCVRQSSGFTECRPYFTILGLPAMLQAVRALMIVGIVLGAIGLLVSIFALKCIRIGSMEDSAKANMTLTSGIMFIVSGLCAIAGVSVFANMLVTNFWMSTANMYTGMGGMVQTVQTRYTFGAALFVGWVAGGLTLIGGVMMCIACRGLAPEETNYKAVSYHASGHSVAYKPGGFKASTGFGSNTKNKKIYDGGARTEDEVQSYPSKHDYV
Assay: cell-based or functional assay
Reported endpoint: IC50 of in vitro cell killing on NUGC4-hClaudin18.2 cells (CCK-8 cell viability, 120 h) (pM)

Binder	Reported
9D1-LD-12 (antibody, human IgG1, kappa, V domains shown, LD-12 linker-drug (Exatecan) on reduced interchain cysteines (Conjugation Method 1, DAR 8)) VH: QIQLVQSGAEVKKPGASVKISCKASGYSFTDYHMNWVRQAPGKGLEWIGNIDPYYGSPTYNHKFKGRVTLTVDTSTSTAYMELSSLRSEDTAVYYCANYGRGNSFPYWGQGTLVTVSS VL: DIVMTQSPSSLAVSLGERATINCKSSQSLLNSGNQRNYLTWYQQKPGQPPKLLIYWASTRESGVPDRFSGSGSGTDFTLTISSLQAEDVAVYYCQNDYSFPFTFGQGTKLEIKR	580
9D1-LD-74 (antibody, human IgG1, kappa, V domains shown, LD-74 linker-drug (Exatecan, polysarcosine side chain) on reduced interchain cysteines (Conjugation Method 1, DAR 8)) VH: QIQLVQSGAEVKKPGASVKISCKASGYSFTDYHMNWVRQAPGKGLEWIGNIDPYYGSPTYNHKFKGRVTLTVDTSTSTAYMELSSLRSEDTAVYYCANYGRGNSFPYWGQGTLVTVSS VL: DIVMTQSPSSLAVSLGERATINCKSSQSLLNSGNQRNYLTWYQQKPGQPPKLLIYWASTRESGVPDRFSGSGSGTDFTLTISSLQAEDVAVYYCQNDYSFPFTFGQGTKLEIKR	1160
9D1-LD-66 (antibody, human IgG1, kappa, V domains shown, LD-66 linker-drug (Exatecan) on reduced interchain cysteines (Conjugation Method 1, DAR 8)) VH: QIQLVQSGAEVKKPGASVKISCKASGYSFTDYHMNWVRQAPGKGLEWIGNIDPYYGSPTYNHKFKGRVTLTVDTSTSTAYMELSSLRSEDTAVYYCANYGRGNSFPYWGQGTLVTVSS VL: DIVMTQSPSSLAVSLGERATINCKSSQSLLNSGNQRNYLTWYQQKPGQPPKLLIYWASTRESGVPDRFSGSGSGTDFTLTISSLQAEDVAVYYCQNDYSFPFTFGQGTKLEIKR	996
